Target: T1, DDX42 (Homo sapiens, UniProt Q86XP3 1-938)
T1 sequence: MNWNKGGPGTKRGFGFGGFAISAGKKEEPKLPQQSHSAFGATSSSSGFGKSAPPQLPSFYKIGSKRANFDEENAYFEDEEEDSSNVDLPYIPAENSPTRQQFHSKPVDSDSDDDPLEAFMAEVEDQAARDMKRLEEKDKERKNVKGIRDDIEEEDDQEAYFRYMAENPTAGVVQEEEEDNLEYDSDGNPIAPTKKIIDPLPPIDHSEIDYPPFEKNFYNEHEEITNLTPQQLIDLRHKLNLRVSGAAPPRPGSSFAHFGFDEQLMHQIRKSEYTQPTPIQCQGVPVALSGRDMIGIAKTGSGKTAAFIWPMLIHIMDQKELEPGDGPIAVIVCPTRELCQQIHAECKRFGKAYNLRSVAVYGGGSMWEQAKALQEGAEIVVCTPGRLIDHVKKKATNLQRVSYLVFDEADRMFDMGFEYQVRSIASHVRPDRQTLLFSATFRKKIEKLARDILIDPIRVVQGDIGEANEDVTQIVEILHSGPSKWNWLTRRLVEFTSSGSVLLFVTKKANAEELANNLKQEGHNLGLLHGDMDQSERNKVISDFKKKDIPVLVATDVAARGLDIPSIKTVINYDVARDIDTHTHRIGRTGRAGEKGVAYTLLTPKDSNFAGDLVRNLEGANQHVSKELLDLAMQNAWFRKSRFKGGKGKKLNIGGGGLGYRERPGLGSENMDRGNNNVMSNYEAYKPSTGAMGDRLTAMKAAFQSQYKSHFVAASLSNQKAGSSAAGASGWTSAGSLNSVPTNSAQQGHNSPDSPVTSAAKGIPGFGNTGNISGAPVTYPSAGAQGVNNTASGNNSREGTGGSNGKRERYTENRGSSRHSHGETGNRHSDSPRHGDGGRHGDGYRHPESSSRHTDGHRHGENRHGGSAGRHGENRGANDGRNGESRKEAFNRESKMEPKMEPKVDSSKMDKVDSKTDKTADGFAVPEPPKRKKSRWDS
Assay: ELISA; 100 mM KCl; apparent Kd, above the 200 nM top concentration; ELISA: 50 mM K2HPO4 pH 7.4, 100 mM KCl (or 100 mM LiCl), 3% BSA block, 0.1% Tween-20 washes; blocking at room temperature, DDX42 1 h; 50 nM biotin-oligo coating; oligos annealed in 10 mM Tris-HCl pH 7.4, 100 mM KCl
Settings: protein: commercial; tags: N-terminal GST; label: 5' biotin; parallel G4 (CD verified)
observable: pKd
pKd here is simply -log10 of the concentration when that concentration is written in mol/L.

Exercise: Identify pKd associated with the binder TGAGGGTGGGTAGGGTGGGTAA (structured_DNA) [Myc G4 (dG4)]
Key: 6.63

The measured values listed here are drawn from paper PMC6615864.
